- System: HL-60
- test: NCI tumour cell line growth inhibition, 48 h
The source made the active and inactive calls. No stated cut-off is given here; in the data, active = GI50 up to about 1.1 µM and inactive = higher.
Labels: active, inactive

# compound, assigned.label
measured = [
    ("O=S(=O)(c1ccc2ccccc2c1)N1CCN(S(=O)(=O)c2ccc3ccccc3c2)CC1", "inactive"),
    ("C[n+]1[n-]o/c(=N\\N=O)c1-c1cc(-c2/c(=N/N=O)o[n-][n+]2C)cc(-c2/c(=N\\N=O)o[n-][n+]2C)c1", "inactive"),
    ("CC(=O)OCCOCn1c2c(c(=S)[nH]c1=O)CCC2", "inactive"),
    ("N#C/C1=C(\\N)CCSSSC1", "inactive"),
    ("Cc1c([N+](=O)[O-])ccc2c(NCCCN(C)C)ccnc12", "inactive"),
    ("CNC(=S)/C(C#N)=C(\\N)N1CCCC1", "inactive"),
    ("O=C(Nc1ccc(I)cc1C(=O)NCCO)c1cccs1", "inactive"),
    ("C=CCN1C(=O)C[C@H](Cc2ccccc2)NC(=O)C[C@H](Cc2ccccc2)N(CC=C)C(=O)C[C@H](Cc2ccccc2)NC(=O)C[C@@H]1Cc1ccccc1", "inactive"),
    ("O=C(Nc1cccc(NC(=O)c2cc(=O)c3ccccc3o2)n1)c1cc(=O)c2ccccc2o1", "inactive"),
    ("COC(=O)N/N=C(\\C)C(CN(C)C)C(c1ccccc1)c1c(O)c2ccccc2oc1=O (centres undefined)", "inactive"),
    ("COc1cccc2c1-c1nc(N)c3c(OC)cccc3c1C2=O", "inactive"),
    ("COc1ccc2c(=O)c(O)c(-c3ccc(OC)c(OC)c3)oc2c1", "inactive"),
    ("CC1OC(OC2C(O)C(O)C(O)C(O)C2O)C(N)CC1NC(=N)C(=O)O (centres undefined)", "inactive"),
    ("COC1=CC(=O)c2c(c(COC(C)=O)cn2C)C1=O", "active"),
    ("CC(C)=CC[C@]12CCN(C)[C@H]1N(S(=O)(=O)c1ccccc1)c1ccccc12", "inactive"),
    ("COc1c(-c2ccc(F)cc2)oc2c(CC(=O)O)cccc2c1=O", "inactive"),
    ("Cc1ccc2cc3c(ccc4ccccc43)c3c2c1CC3", "inactive"),
    ("CCOc1cc(/C=N/c2nc3cc4sc(/N=C/c5ccc(O)c(OCC)c5)nc4cc3s2)ccc1O", "inactive"),
    ("CC(C)=CCC[C@](C)(O)[C@H]1CC[C@]2(C)[C@@H]1[C@H](O)C[C@@H]1[C@@]3(C)CC[C@H](O[C@@H]4O[C@H](CO)[C@@H](O)[C@H](O)[C@H]4O)C(C)(C)[C@@H]3CC[C@]12C [GINSENOSIDE RH2]", "inactive"),
    ("CS(=O)(=O)c1ccc2nc(-c3ccc(O)cc3)sc2c1", "inactive"),
    ("CC1=C2CCCC2=C/C(=N/Nc2ccc([N+](=O)[O-])cc2[N+](=O)[O-])CC1", "inactive"),
    ("O=C1C=CC(=O)c2c1ccc1c3ccccc3n(-c3ccccc3)c21", "active"),
    ("CC1(C)Oc2ccc3c(=O)cc(-c4cccs4)oc3c2C1C(=O)O (centres undefined)", "inactive"),
    ("NC(=S)N/N=C1\\CCCCc2ccccc21", "inactive"),
]

====

- System: UO-31
- test: NCI tumour cell line growth inhibition, 48 h
Calls of active or inactive are those of the source. No stated cut-off is given here; in the data, active = GI50 up to about 1.1 µM and inactive = higher.
Let's look at some molecules and their measured GI50.
parameter: GI50

# molecule, subject.of.test, parameter, readout.value
measured = [
    ("CCOC(=O)c1cc(C2(O)CCN(CC(C)CC)C2=O)c(-c2cc(C)no2)[nH]1 (stereo not drawn)", "UO-31", "GI50", "> 100 µM (inactive)"),
    ("COC(=O)/C=C\\C1C(C(=O)OC)C2(C(=O)OC)CCC1(C(=O)OC)N2 (stereo not drawn)", "UO-31", "GI50", "17 µM (inactive)"),
    ("Cn1c(=O)nc2n(-c3ccc(O)cc3)c3ccccc3nc-2c1=O", "UO-31", "GI50", "> 100 µM (inactive)"),
    ("COC1CC(OC2C(C)OC(OC3C(C)OC(OC4C(C)OC(O[C@H]5CC[C@@]6(C)C(=CC[C@]7(O)[C@@H]6C[C@@H](O)[C@@]6(C)[C@]7(O)CC[C@@]6(O)C(C)=O)C5)CC4OC)CC3OC)CC2OC)OC(C)C1O (stereo partly drawn)", "UO-31", "GI50", "12.4 µM (inactive)"),
    ("N#C/C1=C(\\N)CCSSSC1", "UO-31", "GI50", "56.4 µM (inactive)"),
    ("[N-]=[N+]=NC(c1cn(C2CC(O)C(CO)O2)c(=O)[nH]c1=O)C(Cl)I (stereo not drawn)", "UO-31", "GI50", "> 100 µM (inactive)"),
    ("O=C(O)c1nc2ccc(C(F)(F)F)cc2nc1Nc1ccc(F)cc1", "UO-31", "GI50", "12 µM (inactive)"),
    ("COc1cc(C2c3cc4c(cc3OC(N3CCOCC3)C2C)OCO4)cc(OC)c1OC(C)=O (stereo not drawn)", "UO-31", "GI50", "28.4 µM (inactive)"),
]

====

Let's look at some molecules and their measured GI50.
- Test system: BT-549
- test: NCI tumour cell line growth inhibition, 48 h
Activity calls are given as the source filed them. Cut-off read from the data, not from the text of the source: active = GI50 up to about 1.1 µM and inactive = higher. Where a SMILES comes first, the peptide text is derived from it. [ ]: non-standard residue; d: D form. The star is where a group is joined. ξ: configuration not given here. ξF = NC(Cc1ccccc1)C(=O)O; Cbz = O=C(OCc1ccccc1)*; Aib = CC(C)(N)C(=O)O; NHNH2 = NN*

# molecule, subject.of.test, GI50
records = [
    ("CC(C)=CC[C@]12CCN(C)[C@H]1N(S(=O)(=O)c1ccccc1)c1ccccc12", "BT-549", "> 56.5 µM (inactive)"),
    ("O=[N+]([O-])c1ccc(C2ON=C(c3ccccc3)N2C23CC4CC(CC(C4)C2)C3)cc1 (stereo not drawn)", "BT-549", "> 10 µM (inactive)"),
    ("CC(C)[Si](OC1=C(C(=O)N(C)c2ccccc2Cl)CCC1)(C(C)C)C(C)C", "BT-549", "15.8 µM (inactive)"),
    ("COc1cc(/C=C/C(=O)CC(=O)/C=C/c2ccc(OC(=O)CCCCC3CCSS3)c(OC)c2)ccc1OC(=O)CCCCC1CCSS1 (stereo not drawn)", "BT-549", "> 100 µM (inactive)"),
    ("COc1c(-c2ccc(F)cc2)oc2c(CC(=O)O)cccc2c1=O", "BT-549", "> 100 µM (inactive)"),
    ("COC(=O)CCC1(C)C2CCC1(C)/C(=N/O)C2 (stereo not drawn)", "BT-549", "> 100 µM (inactive)"),
    ("CC(C)(NC(=O)OCc1ccccc1)C(=O)NC(Cc1ccccc1)C(=O)NN (stereo not drawn) (Cbz-[Aib]-[ξF]-NHNH2)", "BT-549", "> 100 µM (inactive)"),
    ("CCOC(=O)c1c2c(n3ccccc13)C(=O)c1ccccc1C2=O", "BT-549", "21.6 µM (inactive)"),
    ("N#Cc1nc(C2CC2)oc1N", "BT-549", "> 100 µM (inactive)"),
    ("CN1CCc2c(sc3ncn(Nc4ccc(F)cc4)c(=N)c23)C1", "BT-549", "> 100 µM (inactive)"),
    ("C#C[C@]1(O)CC[C@H]2[C@@H]3CCc4cc(OC(=O)c5cccc6cc7ccccc7nc56)ccc4[C@H]3CC[C@@]21C", "BT-549", "74 µM (inactive)"),
    ("Cc1cc(N(CC(C)Br)CC(C)Br)ccc1/N=N/c1ccccc1C(=O)O (stereo not drawn)", "BT-549", "11.3 µM (inactive)"),
    ("c1cc(-c2csc(-c3ccsc3)c2)cs1", "BT-549", "> 100 µM (inactive)"),
]

====

Let's look at some compounds and their measured GI50.
- Tested on: M14
- test: NCI tumour cell line growth inhibition, 48 h
The source made the active and inactive calls. No stated cut-off is given here; in the data, active = GI50 up to about 1.1 µM and inactive = higher.

# compound, GI50
data = [
    ("CC(C)(C)OC(=O)N1N=NC2C1C1CC(OCc3ccccc3)(OCc3ccccc3)C2O1 (centres undefined)", "44.1 µM (inactive)"),
    ("O=c1[nH]nc(Cc2ccccc2)n1/N=C\\CC/C=N\\n1c(Cc2ccccc2)n[nH]c1=O", "44.9 µM (inactive)"),
    ("Oc1ccc(O)c(-n2cccn2)c1", "> 100 µM (inactive)"),
    ("O=C(/C=C/c1ccc(-c2ccccc2)cc1)NCc1ccc(C(=O)NCc2ccccc2)cc1", "> 100 µM (inactive)"),
]

====

- Test system: T47D
- test: NCI tumour cell line growth inhibition, 48 h
Calls of active or inactive are those of the source. Rule as the data show it: active = GI50 up to about 1.1 µM and inactive = higher.
parameter: GI50

# compound, parameter, readout.value
rows = [
    ("CC/C=C\\C=C/C(=O)N/C=C/CCC", "GI50", "62.8 µM (inactive)"),
    ("CC(C)c1cccc(C(=O)NCCN(C)C)c1[N+](=O)[O-]", "GI50", "> 100 µM (inactive)"),
    ("O=C1CCc2cc([N+](=O)[O-])ccc2O1", "GI50", "> 100 µM (inactive)"),
    ("O=c1c(Br)c(-c2ccccc2)[s+]([O-])c2ccccc12 (stereo not drawn)", "GI50", "2.8 µM (inactive)"),
    ("Cc1ccc(/N=N/C(=O)NNc2ccc(C)cc2Br)c(Br)c1", "GI50", "17.8 µM (inactive)"),
    ("CN(C)CC(O)c1ccc(Cl)c2ccccc12 (stereo not drawn)", "GI50", "21 µM (inactive)"),
    ("Nc1c2ccccc2nc2ccc3c(=O)cc(-c4ccccc4)oc3c12", "GI50", "1.17 µM (inactive)"),
    ("CC(O)C1CC1(CO)CNc1cc(Cl)nc(N)n1 (stereo not drawn)", "GI50", "> 100 µM (inactive)"),
    ("CSCCC(NC(=O)C(Cc1c[nH]c2ccccc12)NC(=O)CCNC(=O)OC(C)(C)C)C(=O)NC(CC(=O)O)C(=O)NC(Cc1ccccc1)C(N)=O (stereo not drawn)", "GI50", "> 50 µM (inactive)"),
    ("NC1CCC(N(CC(=O)O)CC(=O)O)C(N(CC(=O)O)CC(=O)O)C1 (stereo not drawn)", "GI50", "> 100 µM (inactive)"),
    ("O=c1sc2c(s1)SSSSS2", "GI50", "> 50 µM (inactive)"),
    ("COc1cc(C2S/C(=C/c3ccccc3)C(=O)N2c2ccc(Cl)c(Cl)c2)cc(OC)c1OC (stereo not drawn)", "GI50", "> 100 µM (inactive)"),
    ("CC(C)OC(=O)[C@@H](O)[C@H](CO)C1=CC([Si](C)(C)c2ccccc2)=CON1", "GI50", "> 100 µM (inactive)"),
    ("CCOC(=O)NC1CN2CCC1CC2 (stereo not drawn)", "GI50", "> 100 µM (inactive)"),
    ("Nc1nc(N)c2c3c(cnc2n1)CC(c1ccccc1)CC3 (stereo not drawn)", "GI50", "23.9 µM (inactive)"),
    ("c1ccc(C2=NCCN2)c(C2=NCCN2)c1", "GI50", "> 100 µM (inactive)"),
    ("CC1Cc2cc(O)ccc2C2[C@@H]1C1CC[C@H](O)[C@@]1(C)C[C@@H]2O[N+](=O)[O-] (stereo partly drawn)", "GI50", "9.55 µM (inactive)"),
    ("Cc1cc(Cc2cc(C)c(N)cc2N)c(N)cc1N", "GI50", "> 100 µM (inactive)"),
]

Origin of measurements: ChEMBL document CHEMBL1201862
